Ref: patent US8618114B2

biological target: 5-HT6 receptor (Homo sapiens (Human), UniProt P50406); assay: functional assay for serotonin 5-HT6 receptor inhibition (serotonin-induced intracellular cAMP, LANCE cAMP kit, HEK 293 cells); type: cell-based; conditions: HEK 293 cells with expressed 5-HT6 receptor; reduction of serotonin-induced intracellular cAMP
Sequence (P50406 whole entry): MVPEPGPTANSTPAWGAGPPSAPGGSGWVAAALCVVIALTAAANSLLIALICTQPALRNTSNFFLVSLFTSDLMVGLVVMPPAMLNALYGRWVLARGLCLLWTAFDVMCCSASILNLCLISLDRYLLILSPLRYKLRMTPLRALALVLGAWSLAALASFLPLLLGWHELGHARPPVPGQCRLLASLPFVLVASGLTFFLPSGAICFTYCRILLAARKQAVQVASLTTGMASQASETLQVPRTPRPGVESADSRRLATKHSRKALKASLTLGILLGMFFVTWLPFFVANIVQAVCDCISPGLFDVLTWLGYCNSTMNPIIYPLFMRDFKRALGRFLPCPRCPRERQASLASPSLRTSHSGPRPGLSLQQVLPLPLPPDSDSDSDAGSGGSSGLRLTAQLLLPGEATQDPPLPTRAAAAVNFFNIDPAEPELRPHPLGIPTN
pIC50: −log10 of the molar value. Structures can show the parent of a compound that is named as a salt.
We use 7 as the dividing line for pIC50: on or above the line is TRUE, below is FALSE.

Please indicate if the recorded pIC50 for CNc1nn2c(C)c(CCN(C)C)c(C)nc2c1S(=O)(=O)c1ccccc1 [1.2.22(14).HCl] meets or exceeds 7.
TRUE
